TARGET_DESC: human recombinant COX2 (hCOX2)
PROTOCOL_DESCRIPTION: LCMS-based COX2 enzymatic inhibition assay (PGE2 quantification)
Format: biochemical
Set-up: COX2 2 minutes pge2/pge2d4 area ratio Avg; other: 2 minutes; readout pge2/pge2d4 area ratio; average; COX2 2 minutes pge2/pge2d4 area ratio Avg; LLE; average LLE; COX2 2 minutes pge2 area (counts) Avg; readout pge2 area (counts); other: 2 min; "ovine COX2 (oCOX2), human recombinant COX2 (hCOX2)"
CONDITION_LABEL: 2 minutes; readout pge2 area (counts); average LLE
MEASURED_PROPERTY: COX2 2 minutes pge2 area (counts) Avg. LLE

                                   molecule  experimental_value
0  Cn1ccc(CNc2cccc(-c3ccc(S(C)(=O)=O)cc3)n2)c1               3.926
1  CS(=O)(=O)c1ccc(-n2ccc3ccc(Nc4ccccc4)nc32)cc1               2.995
2  C[S+]([O-])c1ccc(-c2cncc(NCc3cccs3)n2)cc1 (centres unmarked)               5.443

I = COc1ncc(OCc2cccs2)nc1-c1ccc(S(C)(=O)=O)cc1
II = CS(=O)(=O)c1ccc(-c2cncc(Oc3ccc(F)cc3)n2)cc1
-- ask Returns: the argument ( I or II ) having the larger COX2 2 minutes pge2 area (counts) Avg. LLE. State your choice using its label.
-- reply I

---

TARGET_DESC: human recombinant COX2 (hCOX2) (UniProt P35354)
PROTOCOL_DESCRIPTION: LCMS-based COX2 enzymatic inhibition assay (PGE2 quantification)
Assay type: biochemical
Parameters: COX2 2 minutes pge2/pge2d4 area ratio Avg; other: 2 minutes; readout pge2/pge2d4 area ratio; average; COX2 2 minutes pge2/pge2d4 area ratio Avg; LLE; average LLE; COX2 2 minutes pge2 area (counts) Avg; readout pge2 area (counts); other: 2 min; "ovine COX2 (oCOX2), human recombinant COX2 (hCOX2)"
CONDITION_LABEL: 2 minutes; readout pge2/pge2d4 area ratio; average; read-out: COX2 2 minutes pge2/pge2d4 area ratio Avg. IC50
MEASURED_PROPERTY: IC50 (µM)

Example entries begin here.
                                   compound  scale_unit  experimental_value
0  CS(=O)(=O)c1ccc(-c2cccc(NCc3ccco3)n2)cc1          µM              0.0175
1  COc1ccc(NCc2cccs2)nc1-c1ccc(S(C)(=O)=O)cc1          µM             0.00962
2  Cc1ccc(COc2cncc(-c3ccc(S(C)(=O)=O)cc3)n2)s1          µM               0.139
3  CS(=O)(=O)c1ccc(-c2cncc(NCc3nccs3)n2)cc1          µM                1.15
4  CN(Cc1cccs1)c1cncc(-c2ccc(S(C)(=O)=O)cc2)n1          µM              0.0239
5  CS(=O)(=O)c1ccc(-c2cncc(/C=C/c3cccs3)n2)cc1          µM                1.86
6  CS(=O)(=O)c1ccc(-n2ccc3ccc(Cc4cccs4)nc32)cc1          µM              0.0305
7  CS(=O)(=O)c1ccc(-c2cncc(NCc3cncs3)n2)cc1          µM                1.01
8  CS(=O)(=O)c1ccc(-c2cccc(OCc3ccc(Cl)s3)n2)cc1          µM              0.0406
9  C[C@@H](Nc1cccc(-c2ccc(S(C)(=O)=O)cc2)n1)c1ccoc1 (single isomer, unassigned)          µM               0.102

A = CS(=O)(=O)c1ccc(-c2cccc(NCc3ccc(F)cc3)n2)cc1
B = COc1ncc(NCc2cccnc2)nc1-c1ccc(S(C)(=O)=O)cc1
C = CS(=O)(=O)c1ccc(-c2cncc(SC[C@@H]3CCCO3)n2)cc1 (single isomer, unassigned)
-- ask rank_up(items): orders items by reported IC50 in ascending numerical order. Write the labels out in the order the request specifies.
-- reply A, B, C

Source of measurements: patent US20220348590A1
